System: emetic response to apomorphine
Experiment: Anti-emetic activity in the dog (abolition of emetic response to apomorphine)
Format: in vivo
Conditions: Canis lupus familiaris, sc, apomorphine emesis
We label by threshold. Values of ED50 strictly beneath 0.4 mg/kg are yes. Values of 0.4 mg/kg and up are no.

[
  {
    "COMPOUND": "COc1cc(N)c(Cl)cc1C(=O)NN1CCN(C)CC1 [Example 2]",
    "CLASS_ASSIGNMENT": "no"
  }
]

Problem: For the compound COc1cc(N)c(Cl)cc1C(=O)NN1CCN(Cc2ccccc2)CC1 [Example 1] , is ED50 under 0.4 mg/kg?
yes

Now consider CCCCN1CCN(NC(=O)c2cc(Cl)c(N)cc2OC)CC1 [Example 6] and answer again.
no

Can you handle CCCCCN1CCN(NC(=O)c2cc(Cl)c(N)cc2OC)CC1 [Example 13] next?
yes

Moving on to COc1cc(N)c(Cl)cc1C(=O)NN1CCN(CCC(C)C)CC1 [Example 20]
yes
